The entries below come with measured % cleavage uPA t = 120 min values attached.
biological target: uPA (Homo sapiens, UniProt P00749); test: FRET peptide cleavage efficiency with uPA; assay type: biochemical; conditions: t = 120 min; 200 uM linker, 1 ug/ml protease, 37° C., buffer A pH 8.5
Square brackets hold non-standard residues; d marks the D form. Ends that are not written are not given here. Tyr(3-NO2) = N[C@@H](Cc1ccc(O)c([N+](=O)[O-])c1)C(=O)O; 2Abz = Nc1ccccc1C(=O)O
Respond with the bare value in %.

Notebook: RGRRVANPLGYFGKL ([2Abz]RGRRVANPLGYFGKL[Tyr(3-NO2)]-NH2) [LNK058] , % cleavage uPA t = 120 min read as 10

Kindly note the recorded % cleavage uPA t = 120 min for SGRVLPANLVG ([2Abz]SGRVLPANLVG[Tyr(3-NO2)]-NH2) [LNK015] , which is 1

Record summary for SSRVFRKPANLAG ([2Abz]SSRVFRKPANLAG[Tyr(3-NO2)]-NH2) [LNK019] : reported % cleavage uPA t = 120 min = 10

# % cleavage uPA t = 120 min (sequence: SGRVLPYAMTA ([2Abz]SGRVLPYAMTA[Tyr(3-NO2)]-NH2) [LNK024] ) is 1

Measured % cleavage uPA t = 120 min, SSRAVFRKNLGPLGLAG ([2Abz]SSRAVFRKNLGPLGLAG[Tyr(3-NO2)]-NH2) [LNK002] : 18
